# Tested on: BDF1 mice, P388 leukemia ip, median survival T/C
# Assay Name: NCI In Vivo Anticancer Drug Screen. Data for tumor model P388 Leukemia (intraperitoneal) in B6D2F1 (BDF1) mice
# Condition Details: endpoint: median survival time; dose: 200.0 mg/kg/injection; schedule: Q01DX005 (ip); vehicle: saline with Tween-80; higher = longer survival
Inconclusive results and toxic doses are left out.
Reported Metric: T/C

Looking for the measured T/C of N#CC1C(=O)NC(=O)C(C#N)C12CCCCC2 (stereo unspecified) , can you help?
109 % of control

Same for CCC(C)C(NS(=O)(=O)c1ccc(C)cc1)C(=O)O (stereo unspecified)
112 % of control

Same for "CN(C)CCNc1cc(O)c2c(c1O)C(=O)c1ccccc1C2=O"
113 % of control

Same for "CCC(CC)C(=O)NC"
95 % of control

Same for "CC1(C)OC(C)(C)c2c1nnc(-c1ccccc1[N+](=O)[O-])[n+]2[O-]"
86 % of control

Same for "O=c1oc2ccccc2n1Cc1ccc(Cl)cc1"
94 % of control

* * *

# Test system: BDF1 mice, P388 leukemia ip, median survival T/C
# Assay Name: NCI In Vivo Anticancer Drug Screen. Data for tumor model P388 Leukemia (intraperitoneal) in B6D2F1 (BDF1) mice
# Condition Details: endpoint: median survival time; dose: 50.0 mg/kg/injection; schedule: Q01DX005 (ip); vehicle: Klucel (hydroxypropylcellulose) (HPC); higher = longer survival
# Method: The antitumor activity of compounds was measured in mice bearing transplantable tumors. Survival or tumor size were measured and the results are expressed as the measurement made in the treated group (T) divided by the measurement made in the vehicle treated control group (C). The tumor model used in this assay is P388 Leukemia (intraperitoneal) in B6D2F1 (BDF1) mice
Toxic doses and inconclusive results are not listed.
So I've got a bunch of molecules here, and I need their T/C values.

Looking for the measured T/C of "O=C1OC2(CCCCC2)Cc2oc3ccccc3c(=O)c21" , can you help?
87 % of control

Same for "CC1(C)N=C(N)N=C(N)N1c1ccc(C(N)=O)cc1"
109 % of control

Same for "O=S(=O)(OCCF)c1cc(Cl)c(Cl)cc1Cl"
113 % of control

Same for CO[C@H]1/C=C/O[C@@]2(C)Oc3c(C)c(O)c4c(O)c(c(/C=N/N5C(C)CN(Cc6ccccc6)CC5C)c(O)c4c3C2=O)NC(=O)/C(C)=C\C=C\[C@H](C)[C@H](O)[C@@H](C)[C@@H](O)[C@@H](C)[C@H](OC(C)=O)[C@@H]1C (some centres undefined)
94 % of control

* * *

# Test system: BDF1 mice, P388 leukemia ip, median survival T/C
# Assay Name: NCI In Vivo Anticancer Drug Screen. Data for tumor model P388 Leukemia (intraperitoneal) in B6D2F1 (BDF1) mice
# Condition Details: endpoint: median survival time; dose: 200.0 mg/kg/injection; schedule: Q01DX009 (ip); vehicle: saline with Tween-80; higher = longer survival
# Protocol: The antitumor activity of compounds was measured in mice bearing transplantable tumors. Survival or tumor size were measured and the results are expressed as the measurement made in the treated group (T) divided by the measurement made in the vehicle treated control group (C). The tumor model used in this assay is P388 Leukemia (intraperitoneal) in B6D2F1 (BDF1) mice
Inconclusive results and toxic doses are left out.
So I've got a bunch of molecules here, and I need their T/C values.

Looking for the measured T/C of "CCc1ccc2[nH]nc(CCC(=O)O)c(=O)c2c1" , can you help?
92 % of control

Same for O=C(NC1CCOC1=O)OCc1ccccc1 (stereo unspecified)
100 % of control

Same for Cc1nc2ccccc2nc1CC(O)(c1ccccc1)c1cccc2ccccc12 (stereo unspecified)
97 % of control

Same for "CCCCC#CC(=O)OC"
114 % of control

Same for CC(C)CCCC(C)C1CCC2C3CC=C4CC(OP(=O)(N5CC5)N5CC5)CCC4(C)C3CCC12C (stereo unspecified)
110 % of control

Same for "N#C/C(=C\C=C\c1ccccc1)C(N)=O"
120 % of control
